Collected HLM % remaining values appear next to each entry.
Assay: in vitro
Details: % remaining at 60 min; 1 μM
Description: Human Liver Microsomal metabolic stability: The microsomal metabolic stability assay utilized pooled human liver microsomes (mixed gender, BD Gentest), with supplemented cofactors NADPH and UDPGA (Solarbio S&T Co., LTD). […] The mixture was pre-warmed at 37° C. for 10 minutes. […] Peak areas were determined from extracted ion chromatograms. Percent parent remaining was calculated from the area ratio of test compound. […]
# output: bare number, implied unit %

- COc1ccccc1-n1ncc2c1COC[C@H]2NC(=O)c1ncn2c1CCCC2: 92
- O=C(N[C@@H]1COCc2c1cnn2-c1ccccc1F)c1ncn2c1CCCC2 (single isomer, unassigned): 92
- O=C(N[C@@H]1COCc2c1cnn2-c1ccccc1F)c1noc2c1CCCC2: 92

Here's the next entry for you.
Reported HLM % remaining of Cc1cnc(C(=O)N[C@@H]2COCc3c2cnn3-c2ccccc2F)cc1C : 88
